test_name: Volume of distribution at steady state in mouse at 1 mg/kg, iv by LC-MS/MS analysis
Assay type: ADME, organism-based
experimental_setup: in vivo, read-out: Vdss
measure_name: Vd
Form field: result (number plus unit)

Entry Cc1cnc2c(NC(=O)c3cn4cc(C56COC(C)(C5)C6)nc4nc3OC(C)C)cnn2c1 has what Vd?
0.75 L/kg

----------
test_name: Half life in cynomolgus monkey at 1 mg/kg, iv by LC-MS/MS analysis
Assay type: ADME, organism-based, Macaca fascicularis
experimental_setup: in vivo
measure_name: half-life (min)
Could you give me the number in min? Just the number is fine.

Entry Cc1cnc2c(NC(=O)c3cn4cc(C56COC(C)(C5)C6)nc4nc3OC(C)C)cnn2c1 has what half-life?
498
